system: HCC-2998 colon; experiment: NCI-60 one-dose screen, 48 h; settings: 10 µM unless noted
About 83,000 compounds went through this panel and 20% of them were active in at least one assay; those are over-represented in the sample as a whole. Active and inactive are the calls of the source. Rule for the calls: active = growth percent below 10; inactive = the rest.
Labels: YES for active, NO for inactive

INSERT INTO measurements (molecule, discrete_label) VALUES
  ('COc1cc(-c2ccc(/C=N/NC(=O)c3[nH]c4ccc(Br)cc4c3-c3ccccc3)s2)cc(OC)c1OC', 'NO'),
  ('CCOc1ccc(C(=O)NC(=S)Nc2ccc(S(N)(=O)=O)cc2)cc1', 'NO'),
  ('CNC(=O)c1cc(Oc2ccc3nc(NC(=O)Nc4cccc(OC(F)(F)F)c4)sc3c2)ccn1', 'NO'),
  ('O=C1/C(=C/C2=Cc3ccccc3OC2)SC(=S)N1c1ccccc1F', 'NO'),
  ('O=c1[nH]c2ccc(Cl)cc2cc1CSc1nccc(-c2ccc(Cl)cc2)n1', 'NO'),
  ('CC12CC[C@@H]3[C@]4(C)COC(c5cn[nH]c5-c5cccc(Br)c5)O[C@@H]4CC[C@@]3(C)[C@@H]1CC(C1=CCOC1=O)O2 (stereo partly specified)', 'NO'),
  ('CCCCSc1nc(Nc2ccc(S(N)(=O)=O)cc2)c(C#N)c(-c2ccc(Cl)cc2)n1', 'NO'),
  ('O=C1c2c(c3c4cc(F)ccc4oc3c3[nH]c4ccc(Br)cc4c23)C(=O)N1O', 'NO'),
  ('CCN(CC)CCOc1ccc(Nc2ncc3cc(-c4ccc(O)c(C#N)c4)c(=O)n(C)c3n2)cc1', 'NO'),
  ('COc1ccc(C(=O)/C=C/c2ccc(Cl)c(Cl)c2)cc1S(N)(=O)=O', 'YES'),
  ('Cc1ccc(C(=O)NN2C(=O)/C(=C/C=C/c3ccc([N+](=O)[O-])o3)SC2=S)cc1', 'YES'),
  ('CCC(C)(C)c1ccc(OCCCCCCN2CCN(c3ccncc3)CC2)cc1', 'YES'),
  ('COc1ccc(-c2ccc(SCC(=O)NCCc3ccc(S(N)(=O)=O)cc3)nn2)cc1', 'NO'),
  ('CC(=O)OC[C@@]1(C)C2CC[C@]3(C)C(CC=C4C5CC(C)(C)CC[C@]5(C(=O)Nc5ccc(F)cc5)CC[C@]43C)[C@@]2(C)C[C@@H](OC(C)=O)[C@@H]1OC(C)=O (stereo partly specified)', 'NO'),
  ('CC(C)Sc1nc(NCCc2c[nH]c3ccccc23)c(C#N)c(-c2ccccc2)n1', 'YES'),
  ('CC1=C(C(=O)OC(C)C)C(c2cccc(O)c2)NC(=S)N1 (stereo unspecified)', 'NO'),
  ('COc1ccc(-c2nc3ccc(C(=O)NN4C(=O)c5ccc([N+](=O)[O-])cc5C4=O)cc3[nH]2)cc1', 'NO'),
  ('Cc1cc(N=C2NC(=O)CS2)n[nH]1', 'NO'),
  ('C=C1CC[C@@H]2[C@]3(C)COC(c4cn[nH]c4-c4ccc(OC)cc4)O[C@@H]3CC[C@@]2(C)[C@@H]1C/C=C1/C(=O)OCC1O (stereo partly specified)', 'YES'),
  ('CCCSc1nc(NCCc2c[nH]c3ccccc23)c(C#N)c(-c2ccccc2)n1', 'NO'),
  ('O=C(COc1ccc(NC(=O)Nc2ccc(Cl)c(Cl)c2)cc1)N=Nc1c(O)[nH]c2ccc(Cl)cc12', 'YES'),
  ('C=C1CC[C@@H]2[C@]3(C)COC(c4cn(-c5ccccc5)nc4-c4ccccc4)O[C@@H]3CC[C@@]2(C)[C@@H]1C/C=C1/C(=O)OC[C@H]1O (stereo partly specified)', 'YES'),
  ('N#Cc1ccc(/C=N/NC(=O)c2[nH]c3ccc(Br)cc3c2-c2ccccc2)o1', 'YES'),
  ('COc1ccc(-c2nnc3ccc(N/N=C/c4ccc(O)cc4)nn23)cc1', 'NO'),
  ('O=C1Nc2cc(Cl)ccc2/C1=C/c1cccc(OCc2ccccn2)c1', 'NO'),
  ('O=C1N/C(=N\c2nccs2)S/C1=C\C=C/c1ccccc1', 'NO'),
  ('Cc1ccc(Cc2cnc(NC(=O)c3ccc(/C=C4\SC(=S)N(C)C4=O)cc3)s2)cc1', 'NO'),
  ('COc1ccc(-c2nc3cc(C)ccc3n2CC(=O)N=Nc2c(O)[nH]c3ccc(Br)cc23)cc1', 'NO'),
  ('O=C(CCN1C(=O)/C(=C/c2ccc(F)cc2)SC1=S)N1CCOCC1', 'NO'),
  ('COc1ccc(C2=NN(C(C)=O)C(c3ccc(OCc4ccc(Cl)cc4)c(OC)c3)C2)cc1OC (stereo unspecified)', 'NO'),
  ('COc1ccc(NC(=O)[C@H](CO)NC(=O)OC(C)(C)C)cc1C(=O)Nc1cccc(C2CC(=O)c3c(cc(OC)c(OC)c3OC)O2)c1 (stereo partly specified)', 'NO'),
  ('C/C(=N\Nc1ccc(S(N)(=O)=O)cc1)c1ccc(N=Nc2c(Nc3ccccc3)[nH][nH]c2=O)cc1', 'YES'),
  ('CCCCCCCCc1ccc(C(=O)Nc2ccc(C)cc2C(=O)O)cc1C', 'NO'),
  ('CCCCCCn1c(O)c(N=Nc2nc(-c3cc4ccccc4oc3=O)cs2)c2ccccc21', 'NO'),
  ('COc1ccc(-c2nc3cc(C)ccc3n2CC(=O)N=Nc2c(O)[nH]c3ccccc23)cc1', 'NO'),
  ('N=C1N=C(SCc2nc3ccccc3[nH]2)NC(=O)/C1=C/c1ccc(Cl)cc1', 'NO');

====

system: COLO 205 colon; assay: NCI-60 one-dose screen, 48 h; conditions: 10 µM unless noted
This is part of a sample that, as a whole, favours compounds with a hit. Of some 83,000 tested, about 20% had one in any assay. The source made the active and inactive calls. Rule for the calls: active = growth percent below 10; inactive = the rest.
Labels: true (1) = active, false (0) = inactive

INSERT INTO measurements (compound, tested_on, discrete_label) VALUES
  ('C=C1CCC2C3(C)COC(c4ccccc4)OC3CCC2(C)C1CC(NCc1ccccc1)C1=CCOC1=O (stereo not drawn)', 'COLO 205 colon', 'false (0)'),
  ('CC(=O)Nc1ccc(C(=O)NC(=S)Nc2ccc(S(N)(=O)=O)cc2)cc1', 'COLO 205 colon', 'false (0)'),
  ('Cc1ccc(C2CC(c3ccc(S(=O)(=O)NCCNc4nc(Nc5ccc(F)cc5)nc(N(C)C)n4)cc3)=Nc3c(N)nc(N)nc3N2)cc1 (stereo not drawn)', 'COLO 205 colon', 'false (0)'),
  ('COc1ccc(NC(=O)[C@H](C)N)cc1C(=O)Nc1cccc(C2CC(=O)c3c(cc(OC)c(OC)c3OC)O2)c1 (stereo partly drawn)', 'COLO 205 colon', 'false (0)'),
  ('CCCCc1c(Nn2cnnn2)no[n+]1[O-]', 'COLO 205 colon', 'false (0)'),
  ('O=c1[nH]n(C(=S)N/N=C/c2ccccc2Cl)c(=O)c2ccccc12', 'COLO 205 colon', 'true (1)'),
  ('N#Cc1c(-c2ccc(Cl)cc2)nc2n[nH]c(-c3ccc(Cl)cc3)c2c1-c1cccs1', 'COLO 205 colon', 'false (0)'),
  ('CC1=C(C(=O)c2ccccc2)C(c2cccc3ccccc23)n2c(nc3ccccc32)N1 (stereo not drawn)', 'COLO 205 colon', 'false (0)'),
  ('O=C1NC(=O)c2c1c1c3cc(Br)ccc3[nH]c1c1oc3ccc(F)cc3c21', 'COLO 205 colon', 'false (0)'),
  ('COc1cc2c(c(OC)c1OC)C(=O)CC(c1cccc(NC(=O)c3cc(N)ccc3Cl)c1)O2 (stereo not drawn)', 'COLO 205 colon', 'false (0)'),
  ('COc1cc2oc(-c3cccc(C(=O)Nc4ccc(Cl)cc4)c3)cc(=O)c2c(OCCNC(=O)[C@H](CO)NC(=O)OC(C)(C)C)c1OC', 'COLO 205 colon', 'true (1)'),
  ('CC(=O)OC[C@@]1(C)C2CC[C@]3(C)C(CC=C4C5CC(C)(C)CC[C@]5(C(=O)Nc5cccc(C)c5)CC[C@]43C)[C@@]2(C)C[C@@H](OC(C)=O)[C@@H]1OC(C)=O (stereo partly drawn)', 'COLO 205 colon', 'false (0)'),
  ('O=C(c1ccc(OCCN2CCOCC2)cc1)C1[C@H](c2ccc(Cl)cc2)[C@@H](c2ccccc2)NC12C(=O)Nc1ccc(Cl)cc12 (stereo partly drawn)', 'COLO 205 colon', 'true (1)'),
  ('CC1=C(C#N)C2=NNCC(c3ccccc3)=NN2C(c2ccccc2)=C1', 'COLO 205 colon', 'false (0)'),
  ('C#CCOc1cc(N(CC)CC)ccc1C(C(=O)NC(C)(C)C)N(C(=O)C1CCc2cc(F)ccc2O1)c1ccc(Br)cc1 (stereo not drawn)', 'COLO 205 colon', 'false (0)'),
  ('COc1cccc(-c2nc(Nc3ccc(S(N)(=O)=O)cc3)c3ccccc3n2)c1', 'COLO 205 colon', 'false (0)'),
  ('COc1cc2c(c(OC)c1OC)C(=O)CC(c1cccc(NC(=O)[C@@H](N)CC(C)C)c1)O2 (stereo partly drawn)', 'COLO 205 colon', 'false (0)'),
  ('C#CCOc1ccc(/C=N/Nc2nc(-c3ccc(Cl)cc3)cs2)cc1OC', 'COLO 205 colon', 'false (0)');
